From: ChEMBL document CHEMBL1142409

# targetOfAssay: Transcriptional activator protein LasR (Pseudomonas aeruginosa (strain ATCC 15692 / PAO1 / 1C / PRS 101 / LMG12228))
# assayRemarks: Inhibition of Pseudomonas aeruginosa LasR
# Design: concentration or dose not given beside the values
# experimentalParameters: concentration not given here
In this section, each of the compounds is paired with its reported inhibition.

# chemicalSmiles, comparisonSymbol, inhibition, %
data = [
    ("CCCCCC(=O)CC(=O)N[C@H]1CCOC1=O", ">", 50),
    ("O=C(CCc1ccc(Br)cc1)N[C@H]1CCOC1=O", ">", 50),
    ("O=C(Cc1cccc(Cl)c1)N[C@H]1CCOC1=O", "=", 50),
    ("CCCCCCCC(=O)N[C@H]1CCOC1=O", ">", 50),
    ("O=C(Cc1cccc([N+](=O)[O-])c1)N[C@H]1CCOC1=O", "=", 50),
    ("O=C(Cc1ccc(-c2ccccc2)cc1)N[C@H]1CCOC1=O", "=", 20),
    ("O=C(Cc1cccc(I)c1)N[C@H]1CCOC1=O", "=", 50),
    ("O=C(Cc1cccc(Br)c1)N[C@H]1CCOC1=O", "=", 50),
]
